TARGET_OF_ASSAY: T1, RSV postfusion F (postF), subtype A (respiratory syncytial virus, subtype A, UniProt P03420 26-513)
T1 construct: also called F ΔFP; Postfusion subtype A
ASSAY_INFO: BLI, IgG

- BINDER: "ADI-20970 (antibody, V domains shown) VH: EVQLLESGGGLVKPGGSLRLSCAVSGFSFSNAWMSWVRQAPGKGLEWVGRIRSKTDGGTTDYAAPVKGRFTISRDDSKNTLYLQMNSLKTEDTAVYYCTTAPRYSTSWYPGYYYYYYMDVWGKGTTVTVSS VL: DIQMTQSPSSLSASVGDRVTITCQASQDINFYLNWYQQKPGKAPKLLIYDASNLETGVPSRFSGSVSGTDFTFTISSLQPEDFATYYCQQYDDLPAFGGGTKVEIK"
  binding result: "no binding"
- BINDER: "ADI-14604 (antibody, V domains shown) VH: EVQLLESGGGLVQPGGSLRLSCSASGFTFNNYVMHWVRQAPGKGLEDASAISSNGVSTNYADSVKGRFTISRDNSKNTLYLQMRSLRAEDTALYYCVRDLIPHDSSAYYGYHGMDVWGQGTTVTVSS VL: QPVLTQPPSASGTPGQSVTISCSGSSSNIGTNVVNWYQQLPGTAPKLLIYSNDLRPSGVPDRFSGSKSGTSASLAISGLQSEDEANYYCAAWDDSLNGVLFGGGTKLTVL"
  binding result: "no binding"
